# targetOrSystem: UniProt P48730
# runDescription: Kinase assay, concentration dependent inhibition of CK-1δ
# experimentalConditions: read-out: Ck1δ IC50
pIC50: −log10 of the molar value.
// reported pIC50 per item

CN(C)c1cc(-c2ccncc2)c(-c2cccc3cnccc23)nn1    < 5.00

Task: I am curious: what pIC50 value has been reported for Fc1cnccc1-c1cc(C2CC2)nnc1-c1ccc2ccccc2c1 ?
Result: < 5.00

Task: I am curious: what pIC50 value has been reported for CCN(CC)c1cc(-c2ccncc2)c(-c2cccc3ccccc23)nn1 ?
Result: < 5.00

###

# targetOrSystem: CK-1δ (Homo sapiens (Human), UniProt P48730)
# Sequence (P48730 whole entry): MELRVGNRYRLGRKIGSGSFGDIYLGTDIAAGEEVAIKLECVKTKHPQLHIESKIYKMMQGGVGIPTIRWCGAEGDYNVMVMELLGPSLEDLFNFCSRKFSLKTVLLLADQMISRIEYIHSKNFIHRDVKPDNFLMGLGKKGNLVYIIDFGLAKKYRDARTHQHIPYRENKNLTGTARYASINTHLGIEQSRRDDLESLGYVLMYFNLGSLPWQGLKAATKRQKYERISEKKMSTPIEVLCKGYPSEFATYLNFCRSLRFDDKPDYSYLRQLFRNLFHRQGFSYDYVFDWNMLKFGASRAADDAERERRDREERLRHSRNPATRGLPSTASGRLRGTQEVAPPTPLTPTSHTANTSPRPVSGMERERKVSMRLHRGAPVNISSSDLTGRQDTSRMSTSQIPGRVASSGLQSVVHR
# runDescription: Kinase assay, concentration dependent inhibition of CK-1δ
# experimentalConditions: read-out: Ck1δ IC50
// reported IC50 per item
All answers are understood in µM, so give the number only.

CN1CCN(c2cc(-c3ccncc3)c(-c3cccc4c(F)cccc34)nn2)CC1    32.5

Task: I am curious: what IC50 value has been reported for CN1CCN(c2cc(-c3ccncc3)c(-c3cccc4cc(F)ccc34)nn2)CC1 ?
Result: 136

Task: I am curious: what IC50 value has been reported for CCN1CCN(c2cc(-c3ccncc3)c(-c3ccc4ccccc4c3)nn2)CC1 ?
Result: 4.99

Task: I am curious: what IC50 value has been reported for CC(C)Nc1cc(-c2ccncc2)c(-c2ccc3ccccc3c2)nn1 ?
Result: 2.62

Task: I am curious: what IC50 value has been reported for CN1CCN(c2cc(-c3ccncc3)c(-c3ccc4ccc(F)cc4c3)nn2)CC1 ?
Result: 16.8

Data origin: patent US11149020B2
